Attribute: IC50
system tested: recombinant human Lp-PLA2 (Homo sapiens, UniProt Q13093)
test summary: Recombinant human Lp-PLA2 assay (rhLp-PLA2, PED6 assay)
settings: upper limit for pIC50 in this assay is 9.3

Sample answers from the record:
- compound: "O=c1cc(OCc2ccc(Oc3ccc(Cl)c(C(F)(F)F)c3)cc2)ccn1Cc1cncnc1 [Example 26]"
  observed measurement: "> 10 nM"
- compound: "O=c1nc(OCCc2ccc(Oc3ccc(Cl)c(C(F)(F)F)c3)cc2)ccn1Cc1cncnc1 [Example 11]"
  observed measurement: "≤ 1 nM"

Query: IC50 for O=c1nc(OCCc2ccc(Oc3ccc(Cl)c(C(F)(F)F)c3)cc2)ccn1Cc1ccncc1 [Example 9] ?
Result: ≤ 1 nM

Query: IC50 for Cn1cc(Cn2cc(F)c(OCCc3ccc(Oc4ccc(C(F)(F)F)nc4)c(F)c3)nc2=O)cn1 [Example 41] ?
Result: ≤ 1 nM

Query: IC50 for Cc1cn(Cc2cnn(C)c2)c(=O)nc1OCc1ccc(Oc2ccc(F)c(F)c2)c(C#N)c1 [Example 71] ?
Result: ≤ 1 nM

Query: IC50 for Cc1cn(Cc2cnn(C)c2)c(=O)nc1OCc1ccc(Oc2ccc(F)c(F)c2)c(F)c1 [Example 72] ?
Result: ≤ 1 nM

Query: IC50 for Cc1cccc(Oc2ccc(CCOc3nc(=O)n(Cc4cnn(C)c4)cc3F)cc2)n1 [Example 61] ?
Result: > 10 nM

====

Attribute: pIC50
system tested: recombinant human Lp-PLA2 (Homo sapiens)
test summary: Recombinant human Lp-PLA2 assay (rhLp-PLA2, PED6 assay)
settings: upper limit for pIC50 in this assay is 9.3
pIC50: −log10 of the molar value.

- compound: "COc1ncc(Cn2cc(F)c(OCCc3ccc(Oc4cccc(C)n4)cc3)nc2=O)cn1 [Example 62]"
  system tested: "recombinant human Lp-PLA2 (Homo sapiens)"
  endpoint name: "pIC50"
  observed measurement: "< 8.00"
- compound: "CCn1ccc(OCc2ccc(Oc3ccc(Cl)c(C(F)(F)F)c3)c(C#N)c2)nc1=O [Example 5]"
  system tested: "recombinant human Lp-PLA2 (Homo sapiens)"
  endpoint name: "pIC50"
  observed measurement: "≥ 9.00"
- compound: "Cn1cc(Cn2cc(Cl)c(OCCc3cnc(Oc4ccc(Cl)c(C(F)(F)F)c4)c(F)c3)nc2=O)cn1 [Example 31]"
  system tested: "recombinant human Lp-PLA2 (Homo sapiens)"
  endpoint name: "pIC50"
  observed measurement: "≥ 9.00"

Query: Query pIC50 on recombinant human Lp-PLA2 (Homo sapiens) for COc1ncc(Cn2cc(Cl)c(OCCc3ccc(Cc4ccc(Cl)c(C(F)(F)F)c4)cc3)nc2=O)cn1 [Example 45]
Result: ≥ 9.00

Query: Query pIC50 on recombinant human Lp-PLA2 (Homo sapiens) for Cn1cc(Cn2cc(Cl)c(OCc3ccc(Oc4ccc(F)c(F)c4)c(F)c3)nc2=O)cn1 [Example 53]
Result: ≥ 9.00

Query: Query pIC50 on recombinant human Lp-PLA2 (Homo sapiens) for Cn1cc(Cn2ccc(OCc3ccc(Oc4cccc(C(F)(F)F)c4)cc3)cc2=O)cn1 [Example 25]
Result: < 8.00

Query: Query pIC50 on recombinant human Lp-PLA2 (Homo sapiens) for Cn1cc(Cn2cc(F)c(OCCc3cnc(Oc4ccc(Cl)c(C(F)(F)F)c4)c(F)c3)nc2=O)cn1 [Example 33]
Result: ≥ 9.00

Query: Query pIC50 on recombinant human Lp-PLA2 (Homo sapiens) for N#Cc1cc(COc2ccn(Cc3cccnc3)c(=O)n2)ccc1Oc1ccc(Cl)c(C(F)(F)F)c1 [Example 4]
Result: ≥ 9.00

====

system tested: Lp-PLA2 from plasma (Homo sapiens, UniProt Q13093)
Construct: from tissue; host or cells: pooled human plasma
test summary: Lp-PLA2 human plasma assay (Thio-PAF assay)
Assay type: biochemical
settings: pooled human plasma; read-out: pIC50 values in the thio-PAF assay (converted)
endpoint name: IC50

- compound structure: "Cn1cc(Cn2ccc(CCc3ccc(Oc4cccc(C(F)(F)F)c4)c(C#N)c3)nc2=O)cn1"
  system tested: "Lp-PLA2 from plasma (Homo sapiens, UniProt Q13093)"
  IC50: "≤ 1000 nM"

Let's switch to this compound now.
Query: Query IC50 on Lp-PLA2 from plasma (Homo sapiens, UniProt Q13093) for `COc1ncc(Cn2cc(F)c(OCCc3cnc(Oc4ccc(Cl)c(C(F)(F)F)c4)c(F)c3)nc2=O)cn1`
Result: ≤ 100 nM

====

Attribute: IC50
system tested: Lp-PLA2 from plasma (Homo sapiens)
Construct: from tissue; host or cells: pooled human plasma
test summary: Lp-PLA2 human plasma assay (Thio-PAF assay)
Type: biochemical
settings: pooled human plasma; read-out: pIC50 values in the thio-PAF assay (converted)

- compound structure: "Cn1cc(Cn2cc(F)c(OCCc3ccc(Oc4ccc(C(F)(F)F)nc4)c(F)c3)nc2=O)cn1"
  IC50: "≤ 0.1 µM"
- compound structure: "COc1ncc(Cn2cc(F)c(OCCc3ccc(Cc4ccc(Cl)c(C(F)(F)F)c4)cc3)nc2=O)cn1"
  IC50: "≤ 0.1 µM"
- compound structure: "Cn1cc(Cn2cc(F)c(OCCc3ccc(Cc4ccc(Cl)c(C(F)(F)F)c4)cc3)nc2=O)cn1"
  IC50: "≤ 0.1 µM"
- compound structure: "Cn1cc(Cn2cc(F)c(OCCc3ccc(Oc4ccc(Cl)c(C(F)(F)F)c4)cn3)nc2=O)cn1"
  IC50: "≤ 0.1 µM"
- compound structure: "Cn1cc(Cn2cc(Cl)c(OCCc3cnc(Oc4ccc(F)c(C(F)(F)F)c4)c(F)c3)nc2=O)cn1"
  IC50: "≤ 0.1 µM"

Query: IC50 for `Cn1cc(Cn2ccc(OCc3ccc(Oc4ccc(Cl)c(C(F)(F)F)c4)c(C#N)c3)cc2=O)cn1` ?
Result: ≤ 1 µM

Query: IC50 for `Cn1cc(Cn2cc(F)c(OCCc3ccc(Oc4cccc(C(F)(F)F)n4)cc3)nc2=O)cn1` ?
Result: ≤ 1 µM

====

Attribute: IC50
system tested: Lp-PLA2 from plasma (Homo sapiens)
Construct: from tissue; host or cells: pooled human plasma
test summary: Lp-PLA2 human plasma assay (Thio-PAF assay)
Assay type: biochemical
settings: pooled human plasma; read-out: pIC50 values in the thio-PAF assay (converted)

- molecule: "Cn1cc(Cn2cc(Cl)c(OCCc3ccc(Oc4ccc(Cl)c(C(F)(F)F)c4)cc3)nc2=O)cn1 [Example 30]"
  endpoint name: "IC50"
  observed measurement: "≤ 100 nM"
- molecule: "CCn1ccc(OCc2ccc(Oc3ccc(Cl)c(C(F)(F)F)c3)c(C#N)c2)nc1=O [Example 5]"
  endpoint name: "IC50"
  observed measurement: "≤ 1000 nM"
- molecule: "Cn1cc(Cn2ccc(OCCc3ccc(Oc4ccc(Cl)c(C(F)(F)F)c4)cc3)nc2=O)cn1 [Example 12]"
  endpoint name: "IC50"
  observed measurement: "≤ 100 nM"

Query: IC50 for Cn1cc(Cn2cc(F)c(OCCc3ccc(Oc4ccc(Cl)c(C(F)(F)F)c4)nc3)nc2=O)cn1 [Example 40] ?
Result: ≤ 100 nM

Query: IC50 for COc1ncc(Cn2cc(Cl)c(OCc3ccc(Oc4ccc(F)c(F)c4)c(F)c3)nc2=O)cn1 [Example 54] ?
Result: ≤ 100 nM

Query: IC50 for O=c1nc(OCCc2ccc(Oc3ccc(Cl)c(C(F)(F)F)c3)cc2)ccn1Cc1cncnc1 [Example 11] ?
Result: ≤ 100 nM

====

Attribute: IC50
system tested: recombinant human Lp-PLA2 (Homo sapiens, UniProt Q13093)
Sequence (Q13093 22-441): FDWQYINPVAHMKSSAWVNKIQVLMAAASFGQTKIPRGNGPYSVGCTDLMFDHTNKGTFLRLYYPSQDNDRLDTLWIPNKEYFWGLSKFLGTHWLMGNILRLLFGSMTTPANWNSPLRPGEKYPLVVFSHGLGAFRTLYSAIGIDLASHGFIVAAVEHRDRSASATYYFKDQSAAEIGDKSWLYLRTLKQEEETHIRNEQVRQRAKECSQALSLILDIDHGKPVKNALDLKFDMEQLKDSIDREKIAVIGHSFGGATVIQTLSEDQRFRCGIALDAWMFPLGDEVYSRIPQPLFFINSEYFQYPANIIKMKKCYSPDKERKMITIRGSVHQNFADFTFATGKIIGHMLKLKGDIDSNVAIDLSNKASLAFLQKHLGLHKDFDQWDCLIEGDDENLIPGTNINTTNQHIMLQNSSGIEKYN
test summary: Recombinant human Lp-PLA2 assay (rhLp-PLA2, PED6 assay)
Format: biochemical
settings: upper limit for pIC50 in this assay is 9.3
Experimental: (1) Recombinant Human Lp-PLA2 Assay (rhLp-PLA2) (Also Referred to as “PED6” Assay) […] The PED6 assay was run as an unquenched 10 μL assay. […] Plates were read for fluorescence intensity at ex: 480/em: 540 using ViewLux microplate imager. […]
Counter-ions that a name gives are not always drawn.

Sample answers from the record:
- molecule: "Cc1cn(Cc2cnn(C)c2)c(=O)nc1OCCc1ccc(Oc2ccc(Cl)c(C(F)(F)F)c2)cc1"
  observed measurement: "≤ 1 nM"
- molecule: "COc1ncc(Cn2cc(C)c(OCCc3ccc(Oc4ccc(F)c(F)c4)nc3)nc2=O)cn1"
  observed measurement: "> 10 nM"
- molecule: "Cc1cn(Cc2cnn(C)c2)c(=O)nc1OCCc1ccc(Oc2ccc(F)c(F)c2)nc1"
  observed measurement: "> 10 nM"
- molecule: "CCn1cc(F)c(OCCc2ccc(Oc3cccc(C(F)(F)F)n3)cc2)nc1=O [Example 63, trifluoroacetic acid salt]"
  observed measurement: "> 10 nM"
- molecule: "CCn1ccc(OCc2ccc(Oc3ccc(Cl)c(C(F)(F)F)c3)cc2)cc1=O"
  observed measurement: "> 10 nM"

Query: IC50 for Cn1cc(Cn2cc(F)c(OCCc3ccc(Oc4ccc(F)c(F)c4)c(F)c3)nc2=O)cn1 [Example 59, trifluoroacetic acid salt] ?
Result: ≤ 1 nM

Query: IC50 for `COc1ncc(Cn2cc(F)c(OCCc3ccc(Cc4ccc(Cl)c(C(F)(F)F)c4)cc3)nc2=O)cn1` ?
Result: ≤ 1 nM

Query: IC50 for `COc1ncc(Cn2cc(Cl)c(OCCc3cnc(Oc4ccc(Cl)c(C(F)(F)F)c4)c(F)c3)nc2=O)cn1` ?
Result: ≤ 1 nM

Query: IC50 for `Cc1ccc(Oc2ccc(COc3ccn(Cc4cnn(C)c4)c(=O)c3)cc2)cc1F` ?
Result: > 10 nM

Query: IC50 for `Cn1cc(Cn2ccc(OCCc3cnc(Oc4ccc(Cl)c(C(F)(F)F)c4)c(F)c3)nc2=O)cn1` ?
Result: ≤ 1 nM

Query: IC50 for `Cn1cc(Cn2ccc(OCc3ccc(Oc4ccc(Cl)c(C(F)(F)F)c4)cc3)nc2=O)cn1` ?
Result: ≤ 1 nM
